System: LNCaP tumor-bearing CB17-SCID mice
protocol notes: Biodistribution studies 24 h p.i.
Type: in vivo
condition context: 177Lu-labelled, mean±SD, n=4-5
Recorded biodistribution: stomach, one value per entry.
Field: numeric (% ID/g). Do not append units.

CC(C)(C)[Si](O)(c1ccc(C(=O)NC[C@@H](NC(=O)CC[C@@H](C(=O)O)N2CCN(CC(=O)O)CCN(CC(=O)O)CCN(CC(=O)O)CC2)C(=O)N[C@H](CCCCNC(=O)CCC(=O)NCCC[C@@H](NC(=O)CC[C@H](NC(=O)N[C@@H](CCC(=O)O)C(=O)O)C(=O)O)C(=O)O)C(=O)O)cc1)C(C)(C)C = 0.24

Please examine the following record next.
The recorded biodistribution: stomach for `CC(C)(C)[Si](O)(c1ccc(C(=O)NC[C@@H](NC(=O)CC[C@@H](C(=O)O)N2CCN(CC(=O)O)CCN(CC(=O)O)CCN(CC(=O)O)CC2)C(=O)N[C@H](CO)C(=O)NCCC(=O)NCCC(=O)NCCC[C@@H](NC(=O)CC[C@H](NC(=O)N[C@@H](CCC(=O)O)C(=O)O)C(=O)O)C(=O)O)cc1)C(C)(C)C` is 0.04
